# Tested on: A673/TR/shEF
# experimental_details: cell viability (LOESS-normalised, relative to median of negative controls) (log2 ratio); higher = more viable cells (less compound effect), active = hit call of the paper (over 3 MAD below the median)
# study_conditions: 2.8 µM; library screen: screen3; EWS-FLI1 expression: high (no doxycycline); treatment time: 72 h
The campaign covered roughly 3,200 compounds. About 300 (9.4%) showed activity. Many of the other results were omitted from the sample, so actives are more common in it than they were.
outcome_measure: cell viability (log2)
Answers are plain numbers.

Field: example entries. Status: answers known.
>  <input_smiles>
CCC1(c2ccccc2)C(=O)NCNC1=O

>  <outcome_measure>
cell viability (log2)

>  <result>
0.146

$$$$
>  <input_smiles>
CN(Cc1cnc2nc(N)nc(N)c2n1)c1ccc(C(=O)N[C@@H](CCC(=O)O)C(=O)O)cc1

>  <outcome_measure>
cell viability (log2)

>  <result>
-0.711

$$$$
>  <input_smiles>
CCN(CC)C(=S)SSC(=S)N(CC)CC

>  <outcome_measure>
cell viability (log2)

>  <result>
-4.24

$$$$
>  <input_smiles>
Cc1ccc(NC(=O)c2ccc(CN3CCN(C)CC3)cc2)cc1Nc1nccc(-c2cccnc2)n1

>  <outcome_measure>
cell viability (log2)

>  <result>
0.135

$$$$
>  <input_smiles>
CC(=O)O[C@@]12CO[C@@H]1C[C@H](O)[C@@]1(C)C(=O)[C@H](O)C3=C(C)[C@@H](OC(=O)[C@H](O)[C@@H](NC(=O)OC(C)(C)C)c4ccccc4)C[C@@](O)([C@@H](OC(=O)c4ccccc4)[C@H]21)C3(C)C

>  <outcome_measure>
cell viability (log2)

>  <result>
-2.83

$$$$

Lab note: next molecule to report on.
For reference, reported cell viability (log2) for Nc1ccccc1NC(=O)c1ccc(CNc2nccc(-c3cccnc3)n2)cc1 stands at -0.554

====

Kindly state cell viability (log2) for each of the entries shown.
# Tested on: A673/TR/shEF
# experimental_details: cell viability (LOESS-normalised, relative to median of negative controls) (log2 ratio); higher = more viable cells (less compound effect), active = hit call of the paper (over 3 MAD below the median)
# study_conditions: 0.308 µM; library screen: screen3; EWS-FLI1 expression: high (no doxycycline); treatment time: 72 h
The campaign covered roughly 3,200 compounds. About 300 (9.4%) showed activity. What follows is part of a selection rich in actives, with near analogues and random picks from the rest.
Give bare numbers.

>  <compound>
C[C@@H](O)[C@H]1C(=O)N2C(C(=O)[O-])=C(SC3Cn4cnc[n+]4C3)[C@H](C)[C@H]12 (some centres undefined)

>  <cell viability (log2)>
0.108

$$$$
>  <compound>
C[C@H](Cn1cnc2c(N)ncnc21)OCP(=O)(O)O

>  <cell viability (log2)>
0.00908

$$$$

Dear colleague, could you send me cell viability (log2) for each of the items below? Thanks.
1. OCC1OC(O)C(O)C(O)C1O (centres undefined)
2. CO[C@H]1C[C@@H]2CC[C@@H](C)[C@@](O)(O2)C(=O)C(=O)N2CCCC[C@H]2C(=O)O[C@H]([C@H](C)C[C@@H]2CC[C@@H](O)[C@H](OC)C2)CC(=O)[C@H](C)/C=C(\C)[C@@H](O)[C@@H](OC)C(=O)[C@H](C)C[C@H](C)/C=C/C=C/C=C/1C
3. Nc1ncnc2c1ncn2[C@@H]1O[C@H](CO)[C@@H](O)[C@H]1O
4. COc1ncc(-c2ccc3nccc(-c4ccnnc4)c3c2)cc1NS(=O)(=O)c1ccc(F)cc1F
5. CN1/C(=C(\O)Nc2ccccn2)C(=O)c2ccccc2S1(=O)=O

Given back:
[0.0849, -0.758, 0.108, -1.07, 0.121]

Dear colleague, could you send me cell viability (log2) for each of the items below? Thanks.
1. Nc1nc(F)nc2c1ncn2[C@@H]1O[C@H](CO)[C@@H](O)[C@@H]1O
2. CC[C@]1(O)C[C@H]2CN(CCc3c([nH]c4ccccc34)[C@@](C(=O)OC)(c3cc4c(cc3OC)N(C=O)[C@H]3[C@@](O)(C(=O)OC)[C@H](OC(C)=O)[C@]5(CC)C=CCN6CC[C@]43[C@@H]65)C2)C1
3. COc1ccc(-c2ccc3c(N4CCOCC4)nc(N4C[C@@H](C)O[C@@H](C)C4)nc3n2)cc1CO
4. CC(C)C[C@H](NC(=O)[C@H](Cc1ccccc1)NC(=O)c1cnccn1)B(O)O
5. CNC[C@H](O)c1ccc(O)c(O)c1

Given back:
[0.0122, -3.82, -0.124, -2.56, 0.079]

Dear colleague, could you send me cell viability (log2) for each of the items below? Thanks.
1. COc1c/c(=C2\C=c3ccccc3=N2)[nH]/c1=C\c1[nH]c(C)cc1C
2. CC(C)n1c(/C=C/C(O)CC(O)CC(=O)O)c(-c2ccc(F)cc2)c2ccccc21 (centres undefined)
3. C[C@]12CC[C@@H]3c4ccc(O)cc4CC[C@H]3[C@@H]1CC[C@@H]2O

Given back:
[-0.218, 0.201, 0.101]

====

Kindly state cell viability (log2) for each of the entries shown.
# Test system: A673/TR/shEF
# experimental_details: cell viability (LOESS-normalised, relative to median of negative controls) (log2 ratio); higher = more viable cells (less compound effect), active = hit call of the paper (over 3 MAD below the median)
# study_conditions: 2.5 µM; library screen: screen1; EWS-FLI1 expression: low (doxycycline-induced shRNA knockdown); treatment time: 72 h
Screen size: about 3,200 compounds; about 300 (9.4%) showed activity. What follows is part of a selection rich in actives, with near analogues and random picks from the rest.

>  <compound>
CC(=O)OC1CCC2(C)C(CCC3C2CC(=O)C2(C)C3CC3OC4(CCC(C)CO4)C(C)C32)C1 (centres undefined)

>  <experimental_system>
A673/TR/shEF

>  <cell viability (log2)>
0.0969 (inactive)

$$$$

Dear colleague, could you send me cell viability (log2) for each of the items below? Thanks.
1. CC(=O)O[C@@H]1CC2C(C)(C)[C@H](O)C[C@H](O)[C@]2(C)C2CC[C@@]3(C)[C@H](c4ccoc4)OC(=O)[C@H]4O[C@]43[C@@]21C (some centres undefined)
2. CC(=O)O[C@@H]1CC2C(C)(C)C=CC(=O)[C@]2(C)C2CC[C@@]3(C)[C@H](c4ccoc4)OC(=O)C4OC43[C@@]21C (some centres undefined)
3. Oc1ccc2c(c1)OC[C@]1(O)Cc3cc(O)c(O)cc3[C@H]21

Given back:
1: 0.11 (inactive); 2: 0.149 (inactive); 3: 0.187 (inactive)

====

# Test system: A673/TR/shEF
# experimental_details: cell viability (LOESS-normalised, relative to median of negative controls) (log2 ratio); higher = more viable cells (less compound effect), active = hit call of the paper (over 3 MAD below the median)
# study_conditions: 2.5 µM; library screen: screen1; EWS-FLI1 expression: high (no doxycycline); treatment time: 72 h
Screen size: about 3,200 compounds; about 300 (9.4%) showed activity. The list comes from a sample in which actives are over-represented; it also holds close analogues and randomly drawn compounds.
Tick one outcome: active, inactive

Asked: Fill in: this test's call for Cc1cc(=O)c2c(O)c3c(cc2o1)OC(C)(C)CC3 is ___
Given back: inactive

Asked: Fill in: this test's call for COc1c(-c2coc3cc4c(cc3c2=O)CC(O)C(C)(C)O4)ccc2c1C=CC(C)(C)O2 (stereo unspecified) is ___
Given back: inactive

Asked: Fill in: this test's call for CCCCOc1ccc(OCCCN2CCOCC2)cc1 is ___
Given back: inactive

Asked: Fill in: this test's call for COc1cc2c(cc1-c1coc3c4c(ccc3c1=O)OC(C)(C)C=C4)OCO2 is ___
Given back: inactive

Asked: Fill in: this test's call for COc1ccc(CN2CCN(Cc3cccc([N+](=O)[O-])c3)CC2)cc1OC is ___
Given back: inactive

Asked: Fill in: this test's call for CCCOc1ccc2nc(NC(=O)OC)[nH]c2c1 is ___
Given back: active

Asked: Fill in: this test's call for O=C1C=CC2=C3c4cc(O)c(O)cc4CC3(O)COC2=C1 (stereo unspecified) is ___
Given back: inactive

Asked: Fill in: this test's call for CCCSc1ccc2nc(NC(=O)OC)[nH]c2c1 is ___
Given back: active

Asked: Fill in: this test's call for NC(N)=NCCN1CCCCCCC1 is ___
Given back: inactive

Asked: Fill in: this test's call for CCCCC[C@@H](CC(=O)O)C(=O)O is ___
Given back: inactive

Asked: Fill in: this test's call for C=C1CCC2OC2(C)CCC2C1CC2(C)C (stereo unspecified) is ___
Given back: inactive

Asked: Fill in: this test's call for CC(C)=CCc1c2c(c3occ(-c4ccc(O)c(O)c4)c(=O)c3c1O)C=CC(C)(C)O2 is ___
Given back: inactive

Asked: Fill in: this test's call for O=C(Oc1cc(O)c2c(c1)O[C@H](c1cc(O)c(OC(=O)c3cc(O)c(O)c(O)c3)c3c(O)c(=O)cc(C4Oc5cc(O)cc(O)c5C[C@H]4O)cc13)[C@H](O)C2)c1cc(O)c(O)c(O)c1 (stereo partly specified) is ___
Given back: inactive

Asked: Fill in: this test's call for COc1ccc(-c2oc3cc(O[C@@H]4O[C@H](CO)[C@@H](O)[C@H](O)[C@H]4O)c(OC)c(O)c3c(=O)c2OC)cc1O is ___
Given back: inactive

Asked: Fill in: this test's call for CC1(C)COC(CC(=O)O)CN1 (stereo unspecified) is ___
Given back: inactive
